- procedure.summary: Luminescence activity assay of purified Gaussia luciferase mutants on coelenterazine derivative ZS2
- Type: biochemical
- Design: key: ratio of mutant luminescence intensity to wild-type Gaussia luciferase
- measurement.conditions: Substrate ZS2 (Table 16)
quantity.kind: Activity of mutant relative to wild-type Gaussia luciferase without the signal peptide
Answer as a number with no unit attached.

query: Read off the recorded Activity of mutant relative to wild-type Gaussia luciferase without the signal peptide for A42G Q152K S170S G174N Q175E K178S A182Y G183A: Gaussia luciferase mutant (protein, SIGNAL (1)..(17), Gaussia luciferase mutant) MGVKVLFALICIAVAEAKPTENNEDFNIVAVASNFATTDLDGDRGKLPGKKLPLEVLKEMEANARKAGCTRGCLICLSHIKCTPKMKKFIPGRCHTYEGDKESAQGGIGEAIVDIPEIPGFKDLEPMEQFIAQVDLCVDCTTGCLKGLANVKCSDLLKKWLPQRCATFASKIQNEVDSIKGYAGD
result: 1.751
